# Test System: CDK2/cyclin A (Homo sapiens)
# Assay Procedure: CDK2/cyclin A kinase assay, substrate pRb(773-928)
# Type: biochemical
# Settings: Phe159 substitutions; relative to H-His-Ala-Lys-Arg-Arg-Leu-Ile-Phe-NH2 (=1); pRb substrate, [ATP] = 100 μM
Square brackets hold non-standard residues; d marks the D form. Ends that are not written are not given here. Phe(4-F) = N[C@@H](Cc1ccc(F)cc1)C(=O)O; Tic = O=C(O)[C@@H]1Cc2ccccc2CN1

{"columns": ["Substance", "Test System", "Relative activity Kinase Inhibition"],
 "data": [
  ["H-His-Ala-Lys-Arg-Arg-Leu-Ile-Tic-NH2 (H-HAKRRLI[Tic]-NH2; SMILES CC[C@H](C)[C@H](NC(=O)[C@H](CC(C)C)NC(=O)[C@H](CCCNC(=N)N)NC(=O)[C@H](CCCNC(=N)N)NC(=O)[C@H](CCCCN)NC(=O)[C@H](C)NC(=O)[C@@H](N)Cc1c[nH]cn1)C(=O)N1Cc2ccccc2C[C@H]1C(N)=O)", "CDK2/cyclin A (Homo sapiens)", 0.3],
  ["HAKRRLIL-NH2", "CDK2/cyclin A (Homo sapiens)", 0.3],
  ["H-His-Ala-Lys-Arg-Arg-Leu-Ile-pFPhe-NH2 (H-HAKRRLI[Phe(4-F)]-NH2; SMILES CC[C@H](C)[C@H](NC(=O)[C@H](CC(C)C)NC(=O)[C@H](CCCNC(=N)N)NC(=O)[C@H](CCCNC(=N)N)NC(=O)[C@H](CCCCN)NC(=O)[C@H](C)NC(=O)[C@@H](N)Cc1c[nH]cn1)C(=O)N[C@@H](Cc1ccc(F)cc1)C(N)=O)", "CDK2/cyclin A (Homo sapiens)", 1],
  ["HAKRRLIW-NH2", "CDK2/cyclin A (Homo sapiens)", 0.3]
]}

###

# Test System: Cyclin A (Homo sapiens, UniProt P20248)
# Sequence (P20248 whole entry): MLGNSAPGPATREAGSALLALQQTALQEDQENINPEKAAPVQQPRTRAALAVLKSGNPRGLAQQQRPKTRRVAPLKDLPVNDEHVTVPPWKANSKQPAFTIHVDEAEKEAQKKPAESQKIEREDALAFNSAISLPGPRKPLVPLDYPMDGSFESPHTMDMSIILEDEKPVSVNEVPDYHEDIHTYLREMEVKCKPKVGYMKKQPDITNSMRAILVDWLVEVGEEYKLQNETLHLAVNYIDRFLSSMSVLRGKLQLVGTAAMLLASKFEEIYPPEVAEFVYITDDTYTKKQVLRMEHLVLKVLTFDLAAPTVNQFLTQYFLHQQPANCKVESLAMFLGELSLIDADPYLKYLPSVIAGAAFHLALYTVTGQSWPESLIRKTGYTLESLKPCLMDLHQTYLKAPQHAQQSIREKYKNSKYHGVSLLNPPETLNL
pIC50: −log10 of the molar value.

{"columns": ["Chemical String", "Test System", "pIC50"],
 "data": [
  ["CC(=O)N[C@@H](CCCN=C(N)N)C(=O)N[C@@H](CCCN=C(N)N)C(=O)N[C@@H](CC(C)C)C(=O)N[C@@H](CC(N)=O)C(=O)N[C@@H](Cc1ccccc1)C(N)=O", "Cyclin A (Homo sapiens, UniProt P20248)", 5.09]
]}

###

# Test System: CDK2/Cyclin E (Homo sapiens, UniProt P24864)
# Construct: 6xHis; made in house; host or cells: Sf9 insect cells (baculovirus co-expression)
# Assay Procedure: CDK2/Cyclin E kinase assay, phosphorylation of GST-Rb
# Format: biochemical
# Settings: GST-pRb substrate, [ATP] = 100 μM
# Protocol: The phosphorylation reaction mixture (total volume 40 μl) consisted of 50 mM HEPES pH 7.4, 20 mM MgCl2, 5 mM EGTA, 2 mM DTT, 20 mM β-glycerophosphate, 2 mM NaF, 1 mM Na3VO4, Protease Inhibitors Cocktail (Sigma, see above), BSA 0.5 mg/ml, 1 μg purified enzyme complex, 10 μl of GST-Rb-Sepharose beads, 100 μM ATP, 0.2 μCi ^32P-ATP. […] To each well were added 50 μl scintillant liquid and the radioactivity of the samples was measured on Scintilation counter (Topcount, HP). […]
Recorded Endpoint: Kinase Inhibition Cyclin E/CDK2 IC30

{"columns": ["Substance", "Endpoint Value"],
 "data": [
  ["FYHSKRR", ">200 µM"],
  ["DAYHSKRRLIFS", "5.9 ± 0.4 µM"],
  ["FYHSKRRL", ">200 µM"],
  ["DFYHSKRALIFS", "30 ± 8 µM"],
  ["YHSKRRLI", ">200 µM"],
  ["YHSKRRLIFS", "7.3 ± 0.8 µM"],
  ["DFYHSKR", "200 µM"],
  ["FYHSKRRLIFS", "6.8 ± 1.0 µM"],
  ["YHSKRRLIF", "7 ± 2 µM"],
  ["AFYHSKRRLIFS", "11 ± 2 µM"],
  ["DFYHSK", "200 µM"],
  ["DFAHSKRRLIFS", "5.3 ± 0.6 µM"],
  ["SKRRLIF", "7.7 ± 0.5 µM"],
  ["DFYASKRRLIFS", "5.1 ± 0.5 µM"],
  ["DFYHSKRRLAFS", "14 ± 3 µM"],
  ["DFYHSARRLIFS", "12.9 ± 2.4 µM"],
  ["DFYHSKRRL", "200 µM"],
  ["DFYHSKRRLIF", "2 ± 0.2 µM"]
]}

Numbers sourced from patent US20050153894A1.
